- system: D(2) dopamine receptor (Bos taurus)
- Sequence (P20288 whole entry): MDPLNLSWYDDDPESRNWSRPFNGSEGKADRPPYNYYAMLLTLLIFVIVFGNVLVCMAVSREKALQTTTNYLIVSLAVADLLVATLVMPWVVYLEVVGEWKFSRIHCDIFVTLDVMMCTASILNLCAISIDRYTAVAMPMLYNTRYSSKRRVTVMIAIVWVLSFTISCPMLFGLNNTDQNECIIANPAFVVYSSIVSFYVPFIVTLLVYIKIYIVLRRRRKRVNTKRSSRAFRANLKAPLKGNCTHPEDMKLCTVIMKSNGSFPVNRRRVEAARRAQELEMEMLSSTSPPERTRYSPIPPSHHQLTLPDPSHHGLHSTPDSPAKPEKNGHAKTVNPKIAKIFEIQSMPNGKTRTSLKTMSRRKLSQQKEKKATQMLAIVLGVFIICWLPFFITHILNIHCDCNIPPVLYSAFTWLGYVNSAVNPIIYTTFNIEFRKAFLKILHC
- measurementDescription: Displacement of [3H]spiroperidol from bovine caudate nucleus membrane Dopamine receptor D2
property: pKi
One number for each entry, as −log10 of the molar value.

The cases that follow already have their pKi on record.
molecule	reportedMeasurement
COc1ccc2c(c1)nc(O)n2C1CCN(CC2COc3ccccc3O2)CC1 (stereo not drawn)	6.82
O=c1[nH]c2cc(F)ccc2n1C1CCN(CC2COc3cc(F)ccc3O2)CC1 (stereo not drawn)	7.15

Here's the next entry for you.
Please look at this molecule and report its pKi: Cc1ccc2c(c1)nc(O)n2C1CCN(CC2COc3ccc(F)cc3O2)CC1 (stereo not drawn) 6.82
